FYI, the data here is from ChEMBL document CHEMBL1138867.

experiment: Antiproliferative activity against human MM470 cells; assay type: functional, cell-based
measured.parameter: pIC50
Answers are plain numbers, as −log10 of the molar value.

**Query** Data request, read-out pIC50, for CN(C)c1ccc(C(=O)NC(CCCCCC(=O)NO)C(=O)NCc2ccccc2)cc1 (stereo unspecified)
**Result** 7.05

###

system: DO4; test: Antiproliferative activity against human DO4 cells; format: functional, cell-based
measured.parameter: IC50

**Query** Checklist item: IC50 tested on DO4, entry CN(C)c1ccc(C(=O)NC(CCCCCC(=O)NO)C(=O)NCc2ccccc2)cc1 (stereo unspecified) , value?
**Result** 120 nM

###

assay: Antiproliferative activity against human AF6 cells; format: functional, cell-based
measured.parameter: IC50 (nM)
One number for each entry, in nM.

**Query** Fill blank: measured IC50 of the molecule CN(C)c1ccc(C(=O)NC(CCCCCC(=O)NO)C(=O)NCc2ccccc2)cc1 (stereo unspecified) is ____.
**Result** 300

###

tested on: COLO 205; assay: Antiproliferative activity against human Colo205 cells; assay type: functional, cell-based
measured.parameter: pIC50
Numbers only, as −log10 of the molar value.

O=C(CCCCC[C@H](NC(=O)OCc1ccccc1)C(=O)Nc1cccc2cccnc12)NO : 6.91
CC(C)COC(=O)N[C@@H](CCCCCC(=O)NO)C(=O)Nc1cccc2cccnc12 : 6.40
CN(C)c1ccc(C(=O)N[C@@H](CCCCCC(=O)NO)C(=O)Nc2cccc3cccnc23)cc1 : 6.65
O=C(CCCCC[C@H](NC(=O)c1cc2ccccc2[nH]1)C(=O)Nc1cccc2cccnc12)NO : 6.99
O=C(/C=C/c1ccccc1)N[C@@H](CCCCCC(=O)NO)C(=O)Nc1cccc2cccnc12 : 6.85

Let us examine a further case.
**Query** Entry O=C(CCCCC[C@H](NC(=O)c1ccc(Br)cc1)C(=O)Nc1ccc(-c2ccccc2)cc1)NO has what pIC50?
**Result** 6.57

###

Give measured pIC50 for each item. Keep answers brief.
test system: NFF; experiment: Antiproliferative activity against human NFF cells; type: functional, cell-based
Give bare numbers, as −log10 of the molar value.

O=C(CCCCC[C@H](NC(=O)Cc1ccc(-c2ccccc2)cc1)C(=O)NCc1ccccc1)NO : 5.29
O=C(CCCCC[C@H](NC(=O)c1ccc(C(F)(F)F)cc1)C(=O)NCc1ccccc1)NO : 5.79
CN(C)c1ccc(C(=O)N[C@@H](CCCCCC(=O)NO)C(=O)Nc2cccc3cccnc23)cc1 : 6.24

// for each compound in input: emit pIC50
1. O=C(CCCCC[C@H](NC(=O)OCC1c2ccccc2-c2ccccc21)C(=O)NCc1ccccc1)NO
2. CN(C)c1ccc(C(=O)N[C@@H](CCCCCC(=O)NO)C(=O)NCc2ccccn2)cc1
3. CN(C)c1ccc(C(=O)N[C@@H](CCCCCC(=O)NO)C(=O)NCc2ccccc2)cc1
4. CN(C)c1ccc(C(=O)N[C@H](CCCCCC(=O)NO)C(=O)NCc2ccccc2)cc1

**Result**
[5.27, 4.48, 4.92, 6.00]

Please state pIC50 for every compound in the list that follows.
1. O=C(CCCCC[C@H](NC(=O)OCc1ccccc1)C(=O)Nc1ccc(-c2ccccc2)cc1)NO
2. CN(C)c1ccc(C(=O)NC(CCCCCC(=O)NO)C(=O)NC2CCCc3ccccc32)cc1 (centres undefined)

**Result**
5.66
5.74

For each listed entry, give its pIC50.
1. O=C(CCCCC[C@H](NC(=O)c1ccc(Br)cc1)C(=O)NCc1ccccc1)NO
2. O=C(/C=C/c1ccccc1)N[C@@H](CCCCCC(=O)NO)C(=O)Nc1cccc2cccnc12
3. O=C(CCCCC[C@H](NC(=O)c1cc2c(O)cccc2[nH]1)C(=O)NCc1ccccc1)NO
4. O=C(CCCCC[C@H](NC(=O)OCc1ccccc1)C(=O)NCc1ccccc1)NO
5. O=C(CCCCC[C@H](NC(=O)OCc1ccccc1)C(=O)Nc1cccc2cccnc12)NO
6. O=C(CCCCC[C@H](NC(=O)c1cc2ccccc2[nH]1)C(=O)NC1(Cc2ccccc2)CCCC1)NO
7. O=C(CCCCC[C@H](NC(=O)OCc1ccccc1)C(=O)NCc1ccncc1)NO
8. O=C(CCCCC[C@H](NC(=O)c1cc2c(Br)cccc2[nH]1)C(=O)NCc1ccccc1)NO

**Result**
1. 5.23
2. 5.91
3. 5.66
4. 5.82
5. 6.34
6. 5.80
7. 4.63
8. 5.71

Quick request: pIC50 for each listed item, please.
1. CN(C)c1ccc(C(=O)NC(CCCCCC(=O)NO)C(=O)NCc2ccccc2)cc1 (centres undefined)
2. CC(C)CCNC(=O)C(CCCCCC(=O)NO)NC(=O)c1ccco1 (centres undefined)

**Result**
6.06
5.36
